- Test system: IgM-induced Akt phosphorylation in B cell
- MEASUREMENT NOTES: IgM-induced Akt phosphorylation in B cell (PBMC, flow cytometry)
- Type: cell-based
- TEST SETTINGS: human PBMC, CD19+ IgM+ B cells, read-out: IC50 μM, inhibition of IgM-induced Akt phosphorylation
Recorded IC50, one value per entry.
Report the figure in µM without appending any unit label.

Exercise: # lookup: IC50 of COc1ccc(CC2CCOCC2)c(Nc2nc3ccccc3nc2NS(=O)(=O)c2cccnc2)c1
Solution: 0.01

Exercise: What would you report for COC(=O)c1ccc(OC)cc1Nc1nc2ccccc2nc1NS(=O)(=O)c1cccnc1 ?
Solution: 0.04

Exercise: What would you report for COc1ccc(CC2CCN(C)CC2)c(Nc2nc3ccccc3nc2NS(C)(=O)=O)c1 ?
Solution: 0.07

Exercise: What would you report for COc1ccc(CN2CCN(C)CC2)c(Nc2nc3ccccc3nc2NS(=O)(=O)c2cccnc2)c1 ?
Solution: 0.03

Exercise: What would you report for COc1ccc(CC2CCN(C)CC2)c(Nc2nc3ccccc3nc2NS(=O)(=O)c2cn(C)cn2)c1 ?
Solution: 0.07

Exercise: What would you report for COc1ccc(CC2CCOCC2)c(Nc2nc3ccccc3nc2NS(C)(=O)=O)c1 ?
Solution: 0.07

Exercise: What would you report for COc1ccc(CC2CCN(C(C)=O)CC2)c(Nc2nc3ccccc3nc2NS(=O)(=O)c2cn(C)cn2)c1 ?
Solution: 0.076

Exercise: What would you report for COc1ccc(CC2CCC(O)CC2)c(Nc2nc3ccccc3nc2NS(=O)(=O)c2cccnc2)c1 (stereo not drawn) ?
Solution: 0.017

Exercise: What would you report for COC(=O)c1ccc(OC)cc1Nc1nc2ccccc2nc1NS(=O)(=O)c1cn(C)cn1 ?
Solution: 0.07

Exercise: What would you report for COc1ccc(CC2CCN(C(C)=O)CC2)c(Nc2nc3ccccc3nc2NS(=O)(=O)c2cccnc2)c1 ?
Solution: 0.037

Exercise: What would you report for COc1ccc(CC2CCOCC2)c(Nc2nc3ccccc3nc2NS(=O)(=O)c2ccc(CN(C)C)cc2)c1 ?
Solution: 0.013

Exercise: What would you report for COc1ccc(CC2CCOCC2)c(Nc2nc3ccccc3nc2NS(=O)(=O)c2cn(C)cn2)c1 ?
Solution: 0.02
